# Cond: 303.15 K; 101 kPa; Liquid; Frequency=2 MHz; Linear variable-path acoustic interferometer
Endpoint Label: speed of sound (m/s)
Please state the figure in m/s; there is no need to write the unit.

Previously resolved entries follow.
Exam item: Reported speed of sound for Cc1ccccc1Cl [2-chlorotoluene] : what is it?
Marked response: 1283.6

Exam item: What speed of sound value was documented for this molecule, CCCCCO [pentan-1-ol] ?
Marked response: 1259.5

Exam item: Entry CCCCCCO [hexan-1-ol] : reported speed of sound = ?
Marked response: 1286.4

Exam item: // lookup speed of sound for CCCCO [butan-1-ol]
Marked response: 1223.4

***
Exam item: Fill in: speed of sound of CCCO [propan-1-ol] is ___
Marked response: 1188.6

Exam item: Recorded speed of sound for CCCCCCCO [heptan-1-ol] , please?
Marked response: 1313.6

----------
# maps each entry to its speed of sound
# Cond: 308.15 K; 101 kPa; Liquid; Frequency=2 MHz; Linear variable-path acoustic interferometer
± gives the expanded uncertainty stated by the source.
Phrase the answer as number then unit, nothing more needed.

Solved cases below.
Exam item: Dear colleague, I am looking for the recorded speed of sound of the following compound: CCCO
Marked response: 1171.8 ± 1.8 m/s

Exam item: Which speed of sound value belongs to CCCCCCCO ?
Marked response: 1293.1 ± 1.9 m/s

Here is the next item to consider.
Exam item: Please give the measured speed of sound for this compound: CCCCO
Marked response: 1206.8 ± 1.8 m/s

----------
# Cond: 303.15 K; 101 kPa; Liquid; Vibrating tube method
Endpoint Label: mass density (kg/m3)
Express it in kg/m3; write the number only.

Solved entries:
Exam item: GET /values?readout=mass density&item= CCCO
Marked response: 795.65

Exam item: # lookup: mass density of CCCCO
Marked response: 802.11

***
Exam item: Entry CCCCCCCO has what mass density?
Marked response: 815.21

Exam item: Return reported mass density; argument: CCCCCO
Marked response: 807.1

Exam item: Report mass density for CCCCCCO please.
Marked response: 811.7

Exam item: Consider the compound Cc1ccccc1Cl and give its measured mass density.
Marked response: 1072.8

----------
Measured mass density by item
# Cond: 298.15 K; 101 kPa; Liquid; Vibrating tube method
Enter your answer as a number in kg/m3; do not include the unit.

Exam item: Recorded mass density of CCCCCO [pentan-1-ol] , please.
Marked response: 810.82

Exam item: What mass density value was documented for this molecule, Cc1ccccc1Cl [2-chlorotoluene] ?
Marked response: 1077.38

Exam item: So what does the record say about mass density for CCCO [propan-1-ol] ?
Marked response: 799.65

Exam item: Which mass density value is on record for CCCCO [butan-1-ol] ?
Marked response: 805.95

New cases:
Exam item: # input molecule: CCCCCCO [hexan-1-ol] ; wanted: its mass density
Marked response: 815.31

Exam item: Using the record for CCCCCCCO [heptan-1-ol] , report its mass density.
Marked response: 818.79

----------
// speed of sound lookup, one value per entry
# Cond: 298.15 K; 101 kPa; Liquid; Frequency=2 MHz; Linear variable-path acoustic interferometer
Write the value in m/s as a bare number.

Exam item: Which speed of sound is listed for CCCCO ?
Marked response: 1238.9

Continuing:
Exam item: Recorded speed of sound of Cc1ccccc1Cl , please.
Marked response: 1299.8

Exam item: // returns reported speed of sound for input CCCCCCCO
Marked response: 1326.5

Exam item: Sample CCCO — what was its speed of sound?
Marked response: 1206.5

Exam item: Request the reported speed of sound associated with CCCCCCO
Marked response: 1303.2

Exam item: Recorded speed of sound for CCCCCO , please?
Marked response: 1276.2

Just for reference, the NIST ThermoML archive (doi:10.1016/j.jct.2013.08.013) is where these values come from.
